Examples of sequences with documented PBM E-score follow.
Molecular target: Sut1 (UniProt P53032)
Sequence: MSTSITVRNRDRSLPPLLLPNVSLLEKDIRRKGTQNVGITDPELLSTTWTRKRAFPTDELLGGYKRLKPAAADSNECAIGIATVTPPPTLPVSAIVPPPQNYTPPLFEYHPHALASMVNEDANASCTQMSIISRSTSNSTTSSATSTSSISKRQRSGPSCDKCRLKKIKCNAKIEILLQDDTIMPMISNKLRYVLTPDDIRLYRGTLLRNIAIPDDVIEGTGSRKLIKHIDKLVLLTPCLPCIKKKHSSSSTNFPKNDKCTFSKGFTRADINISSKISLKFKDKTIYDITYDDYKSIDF
Assay: PBM E-score (8-mer binding enrichment) (E-score (-0.5 to 0.5)); higher = stronger / more preferred TF binding
Conditions: protein concentration: 200 nM; construct: GST-full length
Whole data set: some 33,000 sequences, median “E-score (-0.5 to 0.5)” near -0.017, cut for the highest 2% near 0.3. For the sample, the highest values were picked, then their nearest neighbours and some sequences at random.
I'd appreciate a reply containing only the number, no unit.

* GAGCCGGA | 0.254
* GCGGAAAA | 0.174
* CCGGAAAC | 0.245
* ATCCGAAC | 0.213
* TAACTTAA | 0.246
* CATACGGG | -0.186
* AAATTATG | 0.175
* ATCGGATC | -0.00393
* CGGAGCGC | 0.118
* CTCGGAGC | 0.389

Fill in the blank: the reported PBM E-score of `ATATTTAA` is ____.
0.303

For the sequence shown here, `GTCCGGAC` , give the reported PBM E-score.
0.469

Can you share its PBM E-score? I mean this sequence: `AGTGAATA`
0.177

====

Reported PBM E-score values follow for various sequences
Biological target: Sut1 (UniProt P53032)
Sequence: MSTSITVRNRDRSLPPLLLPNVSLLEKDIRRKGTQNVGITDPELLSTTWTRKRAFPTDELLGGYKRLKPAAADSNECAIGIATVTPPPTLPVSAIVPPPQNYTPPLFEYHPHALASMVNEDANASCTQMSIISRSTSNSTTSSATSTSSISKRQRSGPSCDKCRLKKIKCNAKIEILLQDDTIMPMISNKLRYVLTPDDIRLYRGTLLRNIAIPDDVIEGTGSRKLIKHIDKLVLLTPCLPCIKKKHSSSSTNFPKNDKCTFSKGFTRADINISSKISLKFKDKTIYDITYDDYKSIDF
Experiment: PBM E-score (8-mer binding enrichment) (E-score (-0.5 to 0.5)); higher = stronger / more preferred TF binding
Details: protein concentration: 200 nM; construct: GST-full length
Whole data set: some 33,000 sequences, median “E-score (-0.5 to 0.5)” near -0.017, cut for the highest 2% near 0.3. Shown is part of a subset that was picked to be rich in the highest values.
The response must contain the number and no unit.

Examples from the recorded data:
- CGGACTAC: 0.464
- AAACACGT: 0.116
- ACTCCGAT: 0.491
- AAGCTCCC: -0.156
- AACTTATG: 0.0687

Identify the measured PBM E-score of `GGATCGGA` for Sut1 (UniProt P53032).
0.277

Lookup: PBM E-score / Sut1 (UniProt P53032) / `ATATCGGA`
0.331

====

Biological target: Sut1 (UniProt P53032)
Sequence: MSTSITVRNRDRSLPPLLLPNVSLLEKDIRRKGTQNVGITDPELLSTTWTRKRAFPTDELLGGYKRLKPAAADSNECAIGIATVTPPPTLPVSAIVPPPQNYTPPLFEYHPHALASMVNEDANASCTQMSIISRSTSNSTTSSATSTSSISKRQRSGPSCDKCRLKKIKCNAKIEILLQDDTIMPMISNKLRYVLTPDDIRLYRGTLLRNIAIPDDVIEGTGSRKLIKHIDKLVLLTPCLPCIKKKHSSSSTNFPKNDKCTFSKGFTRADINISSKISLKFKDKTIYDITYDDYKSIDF
Test: PBM E-score (8-mer binding enrichment) (E-score (-0.5 to 0.5)); higher = stronger / more preferred TF binding
Details: protein concentration: 200 nM; construct: GST-full length
In all, about 33,000 sequences were measured (“E-score (-0.5 to 0.5)”: median about -0.017, highest 2% from about 0.3 on). The entries come from a sample that favours the highest values as a whole.
The threshold is inclusive: PBM E-score of exactly 0.3 counts as rule met; values below receive rule not met.

For orientation, consider the following solved cases.
• ATCCGTTA = rule not met
• CGCTGCGA = rule not met
• CAATCGAG = rule not met
• AAAAAAAC = rule not met
• GTCGGAAA = rule met
• TATAATCA = rule not met
• GTCCGTTA = rule met
• TTCGGAAA = rule not met
• AATTCCGC = rule not met

Next item in the queue.
Dear colleague, could you confirm whether `AATTCCCT` has PBM E-score at or above 0.3?
rule not met

====

Molecular target: Sut1 (UniProt P53032)
Sequence: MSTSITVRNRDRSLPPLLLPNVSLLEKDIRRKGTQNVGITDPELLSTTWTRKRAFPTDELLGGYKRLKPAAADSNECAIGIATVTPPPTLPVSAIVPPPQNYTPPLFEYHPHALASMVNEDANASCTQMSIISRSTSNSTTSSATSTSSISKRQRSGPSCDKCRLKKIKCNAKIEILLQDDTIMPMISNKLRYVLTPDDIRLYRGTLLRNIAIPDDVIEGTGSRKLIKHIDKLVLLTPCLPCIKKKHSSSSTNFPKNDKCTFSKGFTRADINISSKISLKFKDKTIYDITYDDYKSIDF
Test: PBM E-score (8-mer binding enrichment) (E-score (-0.5 to 0.5)); higher = stronger / more preferred TF binding
Details: protein concentration: 200 nM; construct: GST-full length
Whole data set: some 33,000 sequences, median “E-score (-0.5 to 0.5)” near -0.017, cut for the highest 2% near 0.3. The sample holds the highest values, similar sequences and a random draw of the others, so the mix is not that of the screen.
# thresholds on PBM E-score define classes: I = under -0.05, II = from -0.05 up to 0.1, III = 0.1 and over

Observe how each entry below is paired with its result.
• AGGAGCTA = I
• CATAACAC = II
• CGATTTCA = II
• GTTAGTCA = II
• GATATACA = III
• AAATGATA = III
• GGATAGCC = II
• CGAATATA = III
• ACCGGACT = III
• AGTGGCAT = I

Looking at `GGTAATAA` , which class would you pick?
III

Which class holds `CACCCCTC` ?
I

Lab note: sort `CAGGCCTA` into the matching PBM E-score band.
I

Field: class (PBM E-score) — entry: `AACCCTAC`
I

Quick check: band for `AGGGCCCG`
I

Hi, small favor: classify `CTCTAAAG` by its PBM E-score when you get a moment.
II

Kindly identify the class of `AAAACAAT` .
III

Consider `TCTAATAA` . To which PBM E-score class does it belong?
III

Class (by measured PBM E-score) for `AGTAATAC`
III

====

Molecular target: Sut1 (UniProt P53032)
Sequence: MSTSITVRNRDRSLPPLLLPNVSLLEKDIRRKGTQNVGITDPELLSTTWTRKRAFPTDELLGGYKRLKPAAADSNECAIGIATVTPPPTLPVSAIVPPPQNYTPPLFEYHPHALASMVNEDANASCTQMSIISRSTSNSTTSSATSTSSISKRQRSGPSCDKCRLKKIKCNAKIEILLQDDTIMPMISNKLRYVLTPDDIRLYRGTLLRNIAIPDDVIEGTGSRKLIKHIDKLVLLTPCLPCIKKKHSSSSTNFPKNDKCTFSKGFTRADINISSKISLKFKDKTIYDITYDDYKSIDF
Test: PBM E-score (8-mer binding enrichment) (E-score (-0.5 to 0.5)); higher = stronger / more preferred TF binding
Settings: protein concentration: 200 nM; construct: GST-full length
Whole data set: some 33,000 sequences, median “E-score (-0.5 to 0.5)” near -0.017, cut for the highest 2% near 0.3. For the sample, the highest values were picked, then their nearest neighbours and some sequences at random.
Some sequences, each annotated with its measured PBM E-score.
Just the number.

Here's what some known entries look like.
* GTATACAA | 0.179
* ACCAACGC | 0.014
* AATCTGGT | 0.047
* CCAGGATC | -0.201
* GCCGAAAA | 0.263

Query: PBM E-score; subject: `ATTCGGAG`
0.432

Which PBM E-score is listed for `ACCGAACA` ?
0.121

Give the measured PBM E-score of `AAGCACGC` .
-0.122

What value of PBM E-score has been recorded for this entry: `AATTGAAG`
0.115

Entry `CTCCGTAA` : reported PBM E-score = ?
0.328

For the sequence `CCATACAA` , what PBM E-score is on record?
0.0626

Which value of PBM E-score has been reported for `CTCCGCCC` in the records?
0.217
